Test Name: Evaluated in vivo for maximum tolerated dose and found to be nontoxic
Format: ADME, organism-based
Result Type: MTD (mg/kg)
# value in mg/kg; strip the unit string

Quick one: MTD of COc1ccc(-c2cc3cccc(OC)c3nc2O)cc1 ? 160

Quick one: MTD of COc1cc(OC)c2cc(-c3ccc(O)cc3)c(O)nc2c1 ? 160

Quick one: MTD of COc1ccc(-c2cc3c(OC)ccc(OC)c3nc2O)cc1 ? 160

Quick one: MTD of CCOC(=O)Cn1c(=O)c(-c2ccc(OC)cc2)cc2c(OC)cc(OC)cc21 ? 160

Quick one: MTD of COc1cc(OC)c2cc(-c3ccccc3)c(O)nc2c1 ? 160

Quick one: MTD of Oc1ccc(-c2cc3c(O)cc(O)cc3nc2O)cc1 ? 160

Quick one: MTD of COc1ccc(-c2cc3c(OC)cc(OC)cc3n(CCC(=O)OCc3ccccc3)c2=O)cc1 ? 160

Quick one: MTD of COc1ccc(-c2cc3c(OC)cc(OC)cc3n(CC#N)c2=O)cc1 ? 160

Quick one: MTD of COc1ccc(-c2cc3c(OC)cc(OC)cc3n(CCCC#N)c2=O)cc1 ? 160

Quick one: MTD of CCN(CC)C(=O)CCn1c(=O)c(-c2ccc(OC)cc2)cc2c(OC)cc(OC)cc21 ? 160

Quick one: MTD of CC(=O)Oc1ccc(-c2cc3c(OC(C)=O)cc(OC(C)=O)cc3n(C)c2=O)cc1 ? 160

Quick one: MTD of COc1ccc(-c2cc3c(OC)cc(OC)cc3nc2O)cc1 ? 160

Quick one: MTD of COc1ccc(-c2cc3c(OC)cc(OC)cc3n(CCN(C)C)c2=O)cc1 ? 160

Quick one: MTD of COc1ccc(-c2cc3c(OC)cc(OC)cc3n(CCC(=O)O)c2=O)cc1 ? 160

Quick one: MTD of COc1cc(OC)c2cc(-c3ccc(O)cc3)c(=O)n(C)c2c1 ? 160

Quick one: MTD of COc1ccc(-c2cc3c(OC)cc(OC)cc3nc2S)cc1 ? 160

Quick one: MTD of COc1ccc(-c2cc3c(OC)cc(OC)cc3n(CC(=O)O)c2=O)cc1 ? 160

Quick one: MTD of COc1ccc(-c2cc3c(OC)cc(OC)cc3n(CC(=O)OCc3ccccc3)c2=O)cc1 ? 160

Quick one: MTD of COc1ccc(-c2cc3c(OC)cc(OC)cc3n(C)c2=O)cc1 ? 160

Quick one: MTD of Cn1c(=O)c(-c2ccc(O)cc2)cc2c(O)cc(O)cc21 ? 160

Quick one: MTD of COc1cc(OC)c2cc(-c3ccc(OC(C)=O)cc3)c(=O)n(C)c2c1 ? 160

Quick one: MTD of COc1ccc(-c2cc3c(OC)cc(OC)cc3n(C)/c2=N\Nc2ccccn2)cc1 ? 160

Quick one: MTD of COc1ccc(-c2cc3c(OC)cc(OC)cc3n(CCC#N)c2=O)cc1 ? 160

Quick one: MTD of COc1cc(OC)c2cc(-c3ccc(OCc4ccccc4)cc3)c(O)nc2c1 ? 160

Quick one: MTD of COc1ccc(-c2cc3c(OC)cc(OC)c4c3n(c2=O)CCC4=O)cc1 ? 160

Quick one: MTD of COc1cccc2cc(-c3ccccc3)c(O)nc12 ? 160

Quick one: MTD of COc1ccc(-c2cc3c(OC)cc(OC)cc3n(CCCN(C)C)c2=O)cc1 ? 160

Quick one: MTD of CCN(CC)C(=O)Cn1c(=O)c(-c2ccc(OC)cc2)cc2c(OC)cc(OC)cc21 ? 160

Quick one: MTD of COC(=O)CCn1c(=O)c(-c2ccc(OC)cc2)cc2c(OC)cc(OC)cc21 ? 160

Quick one: MTD of COc1ccc(-c2cc3c(OC)cc(OC)cc3n(C)/c2=N\Nc2ccccc2)cc1 ? 160

Quick one: MTD of COc1ccc(-c2cc3c(OC)cc(OC)cc3n(C)c2=S)cc1 ? 160

Quick one: MTD of COc1ccc(-c2cc3c(OC)cc(OC)cc3n(CCc3nnn[nH]3)c2=O)cc1 ? 160
